- Experiment Description: ROS inducers in U2OS cancer cells, primary screen, cell-based, H2DCF-DA fluorescence (AID 624156);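 also: 0% = DMSO vehicle median and 100% = reference compound median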
- Applied Conditions: at 10 µM
Among all 46,000 compounds or so, about 900 (2%) were called active. Inconclusive results (about 1%) are left out. Rule as the data show it: active = ROS induction above about 79% (passing the limit was not always enough); inconclusive = no clear call, values can overlap the other calls. The list comes from a sample in which actives are over-represented; it also holds close analogues and randomly drawn compounds.
Can you answer with just one of these options? label 1 (active), label 0 (inactive)

Below are worked cases with known answers.
| Compound | Group |
| --- | --- |
| COC(=O)c1c(C)nc(C)c(C(=O)OC)c1-c1csc(S(=O)(=O)/N=C/N(C)C)c1 | label 0 |
| CC(C)(C)n1ncc2c(=O)n(Cc3ccc(Cl)cc3)cnc21 | label 0 |
| O=C(CCCCC(=O)N/N=C/c1ccc[nH]1)NO | label 0 |
| O=C(Oc1c(Br)cc(Br)c2cccnc12)N1CCOCC1 | label 0 |
| C[C@@H]1CN([C@@H](C)CO)C(=O)c2cc(NC(=O)C3CC3)ccc2O[C@H]1CN(C)C | label 0 |

Which outcome did this test record for the compound CC(C)c1ccc(N2C(=O)CSCC2(C(=O)NC2CCCCC2)c2ccc(Cl)cc2)cc1 (stereo unspecified) ?
label 0

Returns: the outcome recorded for COc1ccc(C2C(C(=O)N(C)c3ccc(C(C)C)cc3)CC(=O)N2c2ccc(OC)cc2)cc1 (stereo unspecified) in this assay.
label 0

Would you mind telling me which call this test gave CCCNC(=O)Cn1c(=O)c2cccn2c2ccccc21 ?
label 0

Please indicate how the test categorized COC(=O)[C@@]1(CCS(=O)(=O)c2ccccc2)N=C(c2ccc(OCCCO)cc2)O[C@H]1c1ccccc1N=[N+]=[N-] .
label 0

For O=C(NC1CCCCCCC1)c1cccs1 , what call appears in the results of this test?
label 0

Given O=c1c2ccccc2nc(SCc2cccc(F)c2)n1C1CC1 , state the outcome it received in this test.
label 0

Short answer needed: outcome of this test for Cn1c(=NC(=O)CCOc2ccccc2)sc2cc(Br)ccc21 ?
label 0

Recorded test call requested for O=C1c2ccccc2S(=O)c2ccccc2S(=O)(=O)N1Cc1ccccc1 (stereo unspecified)
label 1

Hi, sorry to bother you, what did the test record for COC(=O)[C@]1(Cc2ccccc2CN=[N+]=[N-])N=C(c2ccc(OCCCO)cc2)O[C@@H]1c1ccccc1CN=[N+]=[N-] ?
label 1

Which outcome was entered for the compound CNC(=O)CN1C(=O)c2ccccc2S1(=O)=O in this test?
label 0

Hi, do you know how Cc1cc(C(C)(C)C)cc(S(=O)(=O)Nc2ccc(C(=O)N3CCC(C)CC3)cc2)c1C came out in this test?
label 0

Answer briefly: the call reported for CCn1c(SCC(=O)c2ccc(OC)cc2)nnc1-c1ccccc1F in this assay.
label 0

What outcome does the record of this test show for C=CCn1c(SCc2nnc(SCC(=O)c3ccc(Cl)cc3)o2)nnc1-c1ccccc1 ?
label 0

----------
- Experiment Description: ROS inducers in U2OS cancer cells, primary screen, cell-based, H2DCF-DA fluorescence (AID 624156);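 also: 0% = DMSO vehicle median and 100% = reference compound median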
- Applied Conditions: at 10 µM, hits give high values
The campaign covered roughly 46,000 compounds. About 900 (2%) were called active. Roughly 1% stayed inconclusive and do not appear here. Many of the other results were omitted from the sample, so actives are more common in it than they were.
# Lookup of reported ROS induction (% of piperlongumine) keyed by entry

# example entries with known answers
| Compound | ROS induction (% of piperlongumine) |
| --- | --- |
| c1ccc(Cc2nc3c4c5c(sc4ncn3n2)CCCC5)cc1 | 20.6% (inactive) |
| C[C@@H]1CN([C@@H](C)CO)C(=O)Cc2cc(NC(=O)Cn3cnnn3)ccc2O[C@@H]1CN(C)S(=O)(=O)c1cn(C)cn1 | 4.76% (inactive) |
| CC(C)C1N=C2c3ccccc3N=C(SCC(=O)c3ccc(Br)cc3)N2C1=O (configuration not stated) | 63.2% (inactive) |
| COc1ccc(-c2cc(C(F)(F)F)nc(SCCC(=O)N(C)c3ccccc3)n2)cc1 | 33.5% (inactive) |
| COCCOC(=O)N1C(=O)[C@@]2(c3cc(C#CCC(C(=O)OC)C(=O)OC)ccc31)[C@H](c1ccc(OCCO)cc1)N1[C@H](c3ccccc3)[C@H](c3ccccc3)OC(=O)[C@H]1[C@@H]2C(N)=O | 166% (active) |

Value of measured ROS induction (% of piperlongumine) for the entry NC(=O)c1c(NC(=O)c2cnn3c(C(F)F)cc(-c4ccccc4)nc23)sc2c1CCCC2 : 12.4% (inactive)

----------
- Experiment Description: ROS inducers in U2OS cancer cells, primary screen, cell-based, H2DCF-DA fluorescence (AID 624156);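 also: 0% = DMSO vehicle median and 100% = reference compound median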
- Applied Conditions: at 10 µM, hits give high values
Among all 46,000 compounds or so, about 900 (2%) were called active. Not shown: some 1% with an inconclusive outcome. The sample holds actives, similar compounds and a random draw of the others, so the mix is not that of the screen.
Overview of reported ROS induction (% of piperlongumine) across a group of molecules:
Kindly answer with a numeric value in %, unit omitted.

| Structure Smiles String | Readout Units | Value Reported |
| --- | --- | --- |
| CCCn1c2ccccc2c2nnc(SCC(=O)Nc3cccc4ccccc34)nc21 | % | 91.7 |
| Cc1noc(C)c1NC(=O)N(C)C[C@H]1Oc2ccc(NC(=O)C3CCCCC3)cc2CC(=O)N([C@@H](C)CO)C[C@H]1C | % | -5.41 |
| CCn1c2ccccc2c2nnc(SCC(=O)O)nc21 | % | -16.9 |
| c1ccc(Cn2c3ccccc3c3nnc(SCc4ccc5nonc5c4)nc32)cc1 | % | 21.9 |
| C=CCn1c2ccccc2c2nnc(SCCCC(=O)c3ccc(F)cc3)nc21 | % | 81.9 |

Now for another entry.
Record C=CCn1c2ccccc2c2nnc(SCC(=O)N3c4ccccc4Sc4ccccc43)nc21 , field ROS induction (% of piperlongumine): 11.2

----------
- Experiment Description: ROS inducers in U2OS cancer cells, primary screen, cell-based, H2DCF-DA fluorescence (AID 624156);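 also: 0% = DMSO vehicle median and 100% = reference compound median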
- Applied Conditions: at 10 µM, hits give high values
In all, about 46,000 compounds went through this assay and about 900 (2%) were called active. About 1% were inconclusive and are not listed. The list comes from a sample in which actives are over-represented; it also holds close analogues and randomly drawn compounds.
Measurement Label: ROS induction (% of piperlongumine) (%)
Write the answer as a number in %, unit excluded.

Examples with answers:
| Compound | ROS induction (% of piperlongumine) (%) |
| --- | --- |
| O=C(Nc1nccs1)C1CCCN(C(=O)c2cnn(-c3ccccc3)c2-n2cccc2)C1 (stereo not given) | 4.87 |
| C=CCn1c(=S)sc2c(SCC(=O)N3CCc4ccccc43)ncnc21 | -9.07 |
| O=C(NCc1cccnc1)c1cnn2c(C(F)F)cc(-c3ccccc3)nc12 | 170 |
| Cc1ccc2c(c1)c(-c1ccccc1)c(-c1ccccc1)n2CC(O)CNCc1ccco1 (stereo not given) | 4.62 |

Now take the following compound into account.
Given item C=C1C(=O)O[C@@H]2[C@H]3C(CO)=CC(=O)C3=C(C)C[C@H](OC(=O)Cc3ccc(O)cc3)[C@@H]12 , the value recorded as its ROS induction (% of piperlongumine) is 205

----------
- Experiment Description: ROS inducers in U2OS cancer cells, primary screen, cell-based, H2DCF-DA fluorescence (AID 624156);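 also: 0% = DMSO vehicle median and 100% = reference compound median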
- Applied Conditions: at 10 µM
Among all 46,000 compounds or so, about 900 (2%) were called active. Another 1% or so got no clear call; they are omitted. No stated cut-off is given here; in the data, active means ROS induction above about 79% (passing the limit was not always enough); inconclusive means no clear call, values can overlap the other calls. This excerpt belongs to a sample that is enriched for actives.
Can you answer with just one of these options? active, inactive

Which outcome was entered for the compound Nc1ncnc2nc(N3CCCCC3)[nH]c12 in this test?
inactive

----------
- Experiment Description: ROS inducers in U2OS cancer cells, primary screen, cell-based, H2DCF-DA fluorescence (AID 624156);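 also: 0% = DMSO vehicle median and 100% = reference compound median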
- Applied Conditions: at 10 µM
Out of some 46,000 compounds screened, about 900 (2%) were called active. Not shown: some 1% with an inconclusive outcome. Rule as the data show it: active = ROS induction above about 79% (passing the limit was not always enough); inconclusive = no clear call, values can overlap the other calls. The sample as a whole holds a higher share of actives than the screen did.
Result category, one only: yes (active), no (inactive)

| Molecule | Group |
| --- | --- |
| O=C(CSc1nnc(-c2ccccc2)c(-c2ccccc2)n1)Nc1ccccc1 | no |
| CCC/C=C/C(=O)OC1C(O)C23C(O)OC4(CCC5C6(C)CCC(OC7OC(C(=O)O)C(O)C(OC8OC(CO)C(O)C(O)C8OC8OC(C)C(O)C(O)C8OC8OCC(O)C(O)C8O)C7OC7OC(CO)C(O)C(O)C7O)C(C)(C)C6CCC5(C)C4(C)CC2OC(C)=O)C3CC1(C)C (configuration not stated) | no |
| COc1cccc(-c2cnc3c(c2)C(=O)N([C@H](C)CO)C[C@H](C)[C@H](CN(C)Cc2ccncc2)O3)c1 | no |

I'd appreciate the recorded outcome for [N-]=[N+]=Nc1ccccc1C[C@@]1(C(=O)NCc2ccccc2)N=C(c2ccc(OCCCO)cc2)O[C@@H]1c1ccccc1 from this test.
no

Kindly provide the recorded test outcome for the following molecule: N#Cc1c(SCC(=O)Nc2ccccc2)ncc2cc3ccccc3nc12
yes

Assay result, entry CC(C)NC(=O)N(C)C[C@H]1Oc2ccc(NS(=O)(=O)c3cn(C)cn3)cc2CC(=O)N([C@@H](C)CO)C[C@H]1C — outcome?
no

Called result for CC(C)(C)NC(=S)N1CCn2cccc2C1c1ccccc1F (configuration not stated)
no
